- Tested on: DLD1
- test.summary: TCF/Wnt firefly luciferase reporter signal relative to plate median (fraction of plate median); higher = higher Wnt reporter signal
- condition.info: 5 µM; treatment time 24 h; reporter: 7TFP
assay.endpoint: TCF/Wnt firefly luciferase reporter signal
No unit in the answer, please; the number alone is enough.

>>> print(df.to_string())
                               compound  result_number
0              Nc1nc2[nH]cnc2c(=S)[nH]1          0.752
1                    O=C(O)c1cccc(O)c1O          0.954
2  COc1ccc(-c2coc3cc(O)ccc3c2=O)c(O)c1O              1

Now let's try a different one.
Entry CN1C2CCC1CC(OC(=O)C(O)c1ccccc1)C2 (stereo not drawn) ; TCF/Wnt firefly luciferase reporter signal = 1.05

---

- Test system: SW480
- test.summary: cell viability (CellTiter-Glo) relative to plate median (fraction of plate median); higher = more viable cells
- condition.info: 5 µM; treatment time 24 h; reporter: 7TFP
assay.endpoint: cell viability
No unit in the answer, please; the number alone is enough.

Answered examples (3):
                              smiles_record  assay_endpoint  result_number
0  O=C(CCCN1CCC(O)(c2ccc(Cl)cc2)CC1)c1ccc(F)cc1  cell viability          0.995
1                  C=C(C)[C@@H]1CC=C(CO)CC1  cell viability          0.996
2                               Cc1cn[nH]c1  cell viability           1.01

Now let's try a different one.
Entry N[C@H](Cc1ccccc1)C(=O)O ; cell viability = 1.01

---

- Tested on: DLD1
- test.summary: TCF/Wnt firefly luciferase reporter signal relative to plate median (fraction of plate median); higher = higher Wnt reporter signal
- condition.info: 5 µM; treatment time 24 h; reporter: 7TFP
Quick rule for you: TCF/Wnt firefly luciferase reporter signal at 1 or higher means Yes, lower means No.

For this compound, is measured TCF/Wnt firefly luciferase reporter signal 1 or higher? CCC(C)C(N)=O (centres undefined) [2-Methylbutyramide]
Yes

For this compound, is measured TCF/Wnt firefly luciferase reporter signal 1 or higher? CNCCCC12CCC(c3ccccc31)c1ccccc12
Yes

For this compound, is measured TCF/Wnt firefly luciferase reporter signal 1 or higher? C=C1CCC2C(CC2(C)C)C(=C)CC/C1=N/O (centres undefined)
Yes

For this compound, is measured TCF/Wnt firefly luciferase reporter signal 1 or higher? C=CCSCC1Nc2cc(Cl)c(S(N)(=O)=O)cc2S(=O)(=O)N1 (centres undefined)
Yes

For this compound, is measured TCF/Wnt firefly luciferase reporter signal 1 or higher? C=CC1=C(C)c2cc3[nH]c(cc4nc(cc5[nH]c(cc1n2)c(C)c5CCC(=O)O)C(CCC(=O)O)=C4C)c(C)c3C=C
No

For this compound, is measured TCF/Wnt firefly luciferase reporter signal 1 or higher? Cc1cc(CC(=O)O)n(C)c1C(=O)c1ccc(Cl)cc1
Yes

For this compound, is measured TCF/Wnt firefly luciferase reporter signal 1 or higher? COc1c2occc2c(OC)c2c(=O)cc(C)oc12
Yes

For this compound, is measured TCF/Wnt firefly luciferase reporter signal 1 or higher? CS(=O)(=O)c1ccc(C2=C(c3ccccc3)C(=O)OC2)cc1
Yes

For this compound, is measured TCF/Wnt firefly luciferase reporter signal 1 or higher? O=C(O)c1ccc2c(c1)OCO2
No

For this compound, is measured TCF/Wnt firefly luciferase reporter signal 1 or higher? CC(=O)O[C@H](CC(=O)[O-])C[N+](C)(C)C
No

For this compound, is measured TCF/Wnt firefly luciferase reporter signal 1 or higher? CC(C)[N+](C)(CCOC(=O)C1c2ccccc2Oc2ccccc21)C(C)C
Yes

For this compound, is measured TCF/Wnt firefly luciferase reporter signal 1 or higher? CC(CCc1ccccc1)NCC(O)c1ccc(O)c(C(N)=O)c1 (centres undefined)
No

For this compound, is measured TCF/Wnt firefly luciferase reporter signal 1 or higher? C[C@H]1C(=O)CC[C@@H]2[C@]1(C)CC[C@H]1[C@@]2(C)CC[C@@]2(C)[C@@H]3CC(C)(C)CC[C@]3(C)CC[C@]12C
No

For this compound, is measured TCF/Wnt firefly luciferase reporter signal 1 or higher? O=c1cc(-c2ccc(O)c(O)c2)oc2cc(O[C@@H]3O[C@H](CO)[C@@H](O)[C@H](O)[C@H]3O)cc(O)c12 [Luteolin-7-O-glucoside (102)]
No

For this compound, is measured TCF/Wnt firefly luciferase reporter signal 1 or higher? CC1CC(OC(=O)C(O)c2ccccc2)CC(C)(C)N1C (centres undefined)
Yes

For this compound, is measured TCF/Wnt firefly luciferase reporter signal 1 or higher? COc1cc(C)c(C(=O)O)c(O)c1
No

---

Reported cell viability values follow for various molecules
- Test system: SW480
- test.summary: cell viability (CellTiter-Glo) relative to plate median (fraction of plate median); higher = more viable cells
- condition.info: 5 µM; treatment time 24 h; reporter: 7TFP
No unit in the answer, please; the number alone is enough.

>>> df
                                   molecule  result_number
0  CC(C)c1c(O)c(-c2cc3c(c(C(C)C)c2O)CCC2C(C)(C)CCC[C@]32C)cc2c1CCC1C(C)(C)CCC[C@]21C (some centres undefined)           1.02
1  Clc1ccc(C(Cn2ccnc2)OCc2ccsc2Cl)c(Cl)c1 (centres undefined)              1
2  CC1=C(C/C=C(\C)CCC[C@H](C)CCC[C@H](C)CCCC(C)C)C(=O)c2ccccc2C1=O          0.998

Now let's try a different one.
The molecule CC(C)CCC[C@@H](C)[C@H]1CC[C@H]2[C@@H]3CC(=O)[C@H]4C[C@@H](O)CC[C@]4(C)[C@H]3CC[C@]12C on SW480: cell viability was 1.01

---

- System: SW480
- test.summary: cell viability (CellTiter-Glo) relative to plate median (fraction of plate median); higher = more viable cells
- condition.info: 10 µM; treatment time 24 h; reporter: 7TFP
Reported cell viability values follow for various compounds

>>> df
                                   compound  measurement_target  result
0  Cc1ccc(C(=O)Nc2ccc(CN3CCN(C)CC3)c(C(F)(F)F)c2)cc1C#Cc1cnc2cccnn12               SW480    1.01

Entry Cc1ccc(NC(=O)c2ccc(CN3CCN(C)CC3)cc2)cc1Nc1nccc(-c2cccnc2)n1 [Imatinib (Gleevec)] ; cell viability = 0.986

Entry COc1cc(Nc2c(C#N)cnc3cc(OCCCN4CCN(C)CC4)c(OC)cc23)c(Cl)cc1Cl [Bosutinib (SKI-606)] ; cell viability = 0.995

Entry O=C1NC(=O)/C(=C/c2ccc3nccc(-c4ccncc4)c3c2)S1 ; cell viability = 1.02

---

- Test system: DLD1
- test.summary: TCF/Wnt firefly luciferase reporter signal relative to plate median (fraction of plate median); higher = higher Wnt reporter signal
- condition.info: 5 µM; treatment time 24 h; reporter: 7TFP
Reported TCF/Wnt firefly luciferase reporter signal values follow for various compounds
No unit in the answer, please; the number alone is enough.

Answered examples (5):
>>> print(df.to_string())
                                   compound  result_number
0  C[C@@H]1CC(=O)O[C@H](C)Cc2cc(O)cc(O)c2C(=O)O[C@H](C)CC(=O)O[C@H](C)Cc2cc(O)cc(O)c2C(=O)O[C@H](C)CC(=O)O1           1.05
1                  Oc1cccc2nc3c(O)cccc3nc12           1.12
2  CC12CCC3c4ccc(OCc5ccccc5)cc4CCC3C1C[C@@H](O)[C@@H]2O (stereo partly drawn)           0.95
3                      O=c1cc[nH]c(=S)[nH]1           1.03
4          NCC(O)CC(=O)O (stereo not drawn)           1.04

Entry CC(C(=O)O)c1ccc(-c2ccccc2)c(F)c1 (stereo not drawn) ; TCF/Wnt firefly luciferase reporter signal = 1.07

---

Reported cell viability values follow for various compounds
- Test system: HCT116
- test.summary: cell viability (CellTiter-Glo) relative to plate median (fraction of plate median); higher = more viable cells
- condition.info: 5 µM; treatment time 24 h; reporter: TCF4/Wnt

Answered examples (3):
compound	cell viability
O=C(O)c1cc2ccccc2[nH]1 [Indol-2-carboxylic acid]	0.92
COc1ccc(-c2coc3cc(OC)cc(OC)c3c2=O)cc1	1.04
Cc1cnc(NC(=O)C2=C(O)c3ccccc3S(=O)(=O)N2C)s1	1.05

The compound CC(C)(C)NCC(O)COc1cccc2c1CC(O)C(O)C2 (stereo unspecified) on HCT116: cell viability was 0.929

The compound CN1CCN(CCCN2c3ccccc3Sc3ccc(Cl)cc32)CC1 on HCT116: cell viability was 0.941
